Data origin, for the record: patent US20190055314A1

Assay system: T1, CD137-hisFc fusion protein (Sino Biological Cat 10041-H03H) (human, UniProt Q07011 24-186)
T1 construct: Bought; also called recombinant human CD137 (fused with human Fc and His tag); not shown: His tag and human Fc
Protocol details: BLI Octet, Fab;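 also: fab fragments expressed in E. coli, binding to human CD137 measured on Octet RED96, kinetics fitted with a 1:1 Langmuir model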

| Binder | Endpoint unit | kon |
| --- | --- | --- |
| Fab 5359 (Fab, V domains shown, Fab from E. coli; also called VH27/VL27) VH: EVQLVESGGGLVQPGGSLRLSCAASGFSLSTSGVGVGWIRQAPGKGLEWLALIDWADDKYYSPSLKSRLTISRDNSKNTLYLQLNSLRAEDTAVYYCARGGSDAVLGDWFAYWGQGTLVTVSS VL: DIQLTQSPSSLSASVGDRVTITCRASQGIGSYLAWYQQKPGKAPKLLIYDASNLETGVPSRFSGSGSGTDFTLTISSLQPEDFATYYCQQGYSIWTFGQGTKVEIKR | M⁻¹ s⁻¹ | 460000 |
| Fab 5413 (Fab, V domains shown, Fab from E. coli; also called VH38/VL38) VH: EVQLVESGGGLVQPGGSLRLSCAASGFSLSTGGVAVGWIRQAPGKGLEWLALIDWDGDKSYSTSLKSRLTISRDNSKNTLYLQLNSLRAEDTAVYYCAREGSTAVVGDWFDYWGQGTLVTVSS VL: DIQLTQSPSSLSASVGDRVTITCRASQGISRYLAWYQQKPGKAPKLLIYDASNRATGIPSRFSGSGSGTDFTLTISSLQPEDFATYYCQQGYSLWTFGQGTKVEIKR | M⁻¹ s⁻¹ | 560000 |
| Fab 5316 (Fab, V domains shown, Fab from E. coli; also called VH17/VL17) VH: EVQLVESGGGLVQPGGSLRLSCAASGYSISSGYHWAWIRQAPGKGLEWVSSISGDGSSTYYADSVKGRFTISRDNSKNTLYLQLNSLRAEDTAVYYCAREGSDAVTGDWFAYWGQGTLVTVSS VL: DIQLTQSPSSLSASVGDRVTITCRASQGVGTYLAWYQQKPGKAPKLLIYDASSLESGVPSRFSGSGSGTDFTLTISSLQPEDFATYYCQQGYSLWTFGQGTKVEIKR | M⁻¹ s⁻¹ | 140000 |
